Assay: Stability and formation of treprostinil in human cryopreserved hepatocytes
Details: both, human, hepatocytes, pH 7.4
observed property: hepatocyte CLint at 1 μM (µL/min/1e6 cells)
Numbers only, in µL/min/1e6 cells.

In: What value of hepatocyte CLint at 1 μM has been recorded for this entry: C[C@]12CC[C@H]3[C@@H](CCC4=CC(=O)CC[C@@]43C)[C@@H]1CC[C@@H]2O
Out: 95.9

====

Experiment: Stability and formation of treprostinil in human liver microsomes
Settings: both, pH 7.4
observed property: microsomal CLint (µL/min/mg)
One number for each entry, in µL/min/mg.

In: What value of microsomal CLint has been recorded for this entry: C[C@]12CC[C@H]3[C@@H](CCC4=CC(=O)CC[C@@]43C)[C@@H]1CC[C@@H]2O
Out: 47.5
